Taken from the supplement of paper PMC11865577.

tested on: TO-3-N3-2 (biotin conjugate); experiment: pull-down binding Z-score (relative to library population); higher = stronger binding; conditions: RNA library: Library-2
measure: pull-down binding Z-score
Answers are plain numbers.

Examples from the recorded data:
>>> assay_result("UGUUUCUUUAUUGAGGACGAAACA [hsa-mir-329-2]")
-0.343
>>> assay_result("UGUUUCUUUAAUGAGGACGAAACA [hsa-mir-329-1]")
0.302

Let us examine a further case.
Please report the recorded pull-down binding Z-score for GGCUGCGUGCCACCCGGGCAGCU [hsa-mir-3194] .
-0.183

====

tested on: TO-3-N3 (biotin conjugate); experiment: pull-down binding Z-score (relative to library population); higher = stronger binding; settings: RNA library: Library-2
Grouping key: pull-down binding Z-score. Bins: category 1 = under -0.4, category 2 = from -0.4 up to 0.3, category 3 = 0.3 and over

>>> cat("GCCGGUAGCACACCUUGUAAUGGUGUUGAAGGU [SHAPE_invitro_SARS-CoV-2_Motif_416]")
"category 3"
>>> cat("AGAUCACUUUUCUGCACUGGACAGUGAUCU [hsa-mir-3686]")
"category 1"
>>> cat("UGCUUGAUCCAUAUGCAACAAGGCA [hsa-mir-103b-1]")
"category 3"

Consider UUAUUUGAGAUGAGUUACAUCUUGGAGG [hsa-mir-1204] . To which pull-down binding Z-score class does it belong?
category 2

Consider CCCUGGUCAGACUCUCCGGGG [hsa-mir-4675] . To which pull-down binding Z-score class does it belong?
category 2

Consider CGCCAGCUCGCUGACAGCACGACUCAGGGCG [hsa-mir-658] . To which pull-down binding Z-score class does it belong?
category 2

Consider UGCUGGAGAAGUGUUU [hsa-mir-557] . To which pull-down binding Z-score class does it belong?
category 3

Consider AUUGUUGUCGCUUCCAAGAAAAGGACGAAGAUGACAAU [DMSMaPseq_invitro_SARS-CoV-2_Motif_245] . To which pull-down binding Z-score class does it belong?
category 2

====

system: TO-N3-2 (biotin conjugate); assay: pull-down binding Z-score (relative to library population); higher = stronger binding; details: RNA library: Library-2
So basically: pull-down binding Z-score at -0.8 or higher? That is met. Lower than -0.8? That is not met.

Illustrative cases are given below, each with its answer.
>>> cat("CUUGUGGUGAAGUGGACCGCACAAG [hsa-mir-99a]")
"met"
>>> cat("CAUGAGCAGUGCUGACUCAACUCAGGCCUAAACUCAUG")
"met"
>>> cat("UCUAAAUGAAACUCUUGUUACAAUGCCACUUGGCUAUGUAACACAUGGCUUAAAUUUGGA")
"not met"
>>> cat("UUUGUAUUGUGGUUCAGUACCAUGCAAA [hsa-mir-6507]")
"not met"
>>> cat("AUGAAUCUCUCAU [SHAPE_invivo_SARS-CoV-2_Motif_473]")
"not met"
>>> cat("GCCGAAUACCAUAAUGAAUCUGGC [SHAPE_invitro_SARS-CoV-2_Motif_29]")
"met"

Reported pull-down binding Z-score reaches at least -0.8 for AACUUUAAUGUU [SHAPE_invitro_SARS-CoV-2_Motif_263] ?
not met

Reported pull-down binding Z-score reaches at least -0.8 for GCUAGCUCUUGGAGGUUCCGUGGCUAUAAAGAUAACAGAACAUUCUUGGAAUGCUGAUCUUUAUAAGCUCAUGGGACACUUCGCAUGGUGGACAGC ?
met

Reported pull-down binding Z-score reaches at least -0.8 for GGACAGGGAUUCUUUUCACUGUU [hsa-mir-599] ?
met

Reported pull-down binding Z-score reaches at least -0.8 for GACGGCGCCCGCCCUGGCCCUGGC [hsa-mir-4745] ?
met

Reported pull-down binding Z-score reaches at least -0.8 for AAGGCCAGGACCCGCUGACCCAU [hsa-mir-6872] ?
met

Reported pull-down binding Z-score reaches at least -0.8 for AUCUUCUGCAGGCUGCUUACGGUUUCGUCCGUGUUGCAGCCGAUCAUCAGCACAUCUAGGUUUUGUCCGGGUGUGACCGAAAGGUAAGAU [DMSMaPseq_invitro_SARS-CoV-2_Multi_2_ComplexLevel_1] ?
not met

Reported pull-down binding Z-score reaches at least -0.8 for UUUAUGUGAACUAAAAUAUAAA [hsa-mir-513c] ?
not met

Reported pull-down binding Z-score reaches at least -0.8 for AUGUCUGCUGGGGAACCGGGGCU [hsa-mir-4518] ?
met

Reported pull-down binding Z-score reaches at least -0.8 for AGAUCUAUGUCAUAUAUACAGAUAU [hsa-mir-3924] ?
met

Reported pull-down binding Z-score reaches at least -0.8 for UUGGGGAGGAGCUAAGAAGCCCCUACAGGGCCCAG [hsa-mir-4257] ?
met

Reported pull-down binding Z-score reaches at least -0.8 for ACAUUUUAUCUUACUAAUGAUGU [SHAPE_invivo_SARS-CoV-2_Motif_191] ?
not met

Reported pull-down binding Z-score reaches at least -0.8 for AAAUUACCAUUUCAUCUUUUAAAUGGGAUUU ?
not met
